tested on: Rattus norvegicus; assay: Antidiabetic activity in streptozotocin-induced NIDDM Wistar albino rat model assessed as inhibition of rise of blood glucose level at 20 mg/kg, po administered 15 mins prior to glucose challenge measured after 90 mins of glucose loading by glucose oxidase-peroxidase colorimetric method; type: functional

{"smiles.structure": "CCCCNC(=O)NS(=O)(=O)c1ccc(-n2nc(-c3ccc(C)cc3)ccc2=O)cc1", "unit.abbreviation": "%", "inhibition in vivo at 20 mg/kg": 109}
{"smiles.structure": "CCCNC(=O)NS(=O)(=O)c1ccc(-n2nc(-c3ccc(Cl)cc3)ccc2=O)cc1", "unit.abbreviation": "%", "inhibition in vivo at 20 mg/kg": 122}
{"smiles.structure": "CCCNC(=O)NS(=O)(=O)c1ccc(-n2nc(-c3ccccc3)ccc2=O)cc1", "unit.abbreviation": "%", "inhibition in vivo at 20 mg/kg": 125}
{"smiles.structure": "Cc1cc(-c2ccc(=O)n(-c3ccc(S(=O)(=O)NC(=O)NC4CCCCC4)cc3)n2)ccc1Cl", "unit.abbreviation": "%", "inhibition in vivo at 20 mg/kg": 55.2}
{"smiles.structure": "CCCCNC(=O)NS(=O)(=O)c1ccc(-n2nc(-c3ccccc3)ccc2=O)cc1", "unit.abbreviation": "%", "inhibition in vivo at 20 mg/kg": 111}
{"smiles.structure": "Cc1ccc(-c2ccc(=O)n(-c3ccc(S(=O)(=O)NC(=O)NCc4ccccc4)cc3)n2)cc1", "unit.abbreviation": "%", "inhibition in vivo at 20 mg/kg": 119}
{"smiles.structure": "Cc1ccc(-c2ccc(=O)n(-c3ccc(S(=O)(=O)NC(=O)NC4CCCCC4)cc3)n2)cc1", "unit.abbreviation": "%", "inhibition in vivo at 20 mg/kg": 110}
{"smiles.structure": "O=C(NC1CCCCC1)NS(=O)(=O)c1ccc(-n2nc(-c3ccc(Cl)cc3)ccc2=O)cc1", "unit.abbreviation": "%", "inhibition in vivo at 20 mg/kg": 114}
{"smiles.structure": "CCCCNC(=O)NS(=O)(=O)c1ccc(-n2nc(-c3ccc(Cl)cc3)ccc2=O)cc1", "unit.abbreviation": "%", "inhibition in vivo at 20 mg/kg": 100}
